Origin of values: PubChem BioAssay AID1209

- test.system: Mannose-6-phosphate isomerase (Homo sapiens) (UniProt P34949)
- Sequence (P34949 whole entry, looked up): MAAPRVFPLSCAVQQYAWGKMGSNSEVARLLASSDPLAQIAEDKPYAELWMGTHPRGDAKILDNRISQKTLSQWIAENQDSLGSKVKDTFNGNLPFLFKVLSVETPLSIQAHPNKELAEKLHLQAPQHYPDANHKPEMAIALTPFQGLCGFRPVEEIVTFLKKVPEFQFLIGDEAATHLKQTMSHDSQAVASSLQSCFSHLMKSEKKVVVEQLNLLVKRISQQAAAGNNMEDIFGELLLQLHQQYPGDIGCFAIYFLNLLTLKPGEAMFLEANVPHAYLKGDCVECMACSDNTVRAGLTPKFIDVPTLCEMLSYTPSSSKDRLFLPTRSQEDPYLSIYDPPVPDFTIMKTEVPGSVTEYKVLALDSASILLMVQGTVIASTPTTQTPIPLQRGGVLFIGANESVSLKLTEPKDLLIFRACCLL
- assay.comment: inhibitors of human PMI, primary screen, biochemical, fluorescence intensity, coupled assay (AID 1209);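 further: plate controls were DMSO vehicle for no effect and wells lacking substrate for full effect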
- test.context: purified PMI enzyme, at 20 µM, hits give high values
About 810 (0.43%) of roughly 190,000 compounds were called active. The list comes from a sample in which actives are over-represented; it also holds close analogues and randomly drawn compounds.
# reported inhibition; entries follow
Report the value in % with no unit label.

The cases that follow already have their inhibition on record.
Cc1cc(C)cc(-n2c(O)c(C=NC3CCS(=O)(=O)C3)c3ccccc3c2=O)c1 (stereo unspecified): 14.1
O=C(c1ccco1)N1CCn2c1nc1ccccc12: -7.1
CCOC(=O)c1c(C)oc2c1c(C(c1cccnc1)N1CCOCC1)c(O)c1ccccc12 (stereo unspecified): 22.6
CCOC(=O)c1c(C)oc2c1c(C(c1ccccc1)N1CCOCC1)c(O)c1ccccc12 (stereo unspecified): 37

Item: CCOC(=O)c1c(C)oc2c1c1c(c3ccccc32)OCN(Cc2cccnc2)C1 | inhibition: 71.9
